Molecular target: human TLR8 (Homo sapiens (Human), UniProt Q9NR97)
Sequence (Q9NR97 27-1041): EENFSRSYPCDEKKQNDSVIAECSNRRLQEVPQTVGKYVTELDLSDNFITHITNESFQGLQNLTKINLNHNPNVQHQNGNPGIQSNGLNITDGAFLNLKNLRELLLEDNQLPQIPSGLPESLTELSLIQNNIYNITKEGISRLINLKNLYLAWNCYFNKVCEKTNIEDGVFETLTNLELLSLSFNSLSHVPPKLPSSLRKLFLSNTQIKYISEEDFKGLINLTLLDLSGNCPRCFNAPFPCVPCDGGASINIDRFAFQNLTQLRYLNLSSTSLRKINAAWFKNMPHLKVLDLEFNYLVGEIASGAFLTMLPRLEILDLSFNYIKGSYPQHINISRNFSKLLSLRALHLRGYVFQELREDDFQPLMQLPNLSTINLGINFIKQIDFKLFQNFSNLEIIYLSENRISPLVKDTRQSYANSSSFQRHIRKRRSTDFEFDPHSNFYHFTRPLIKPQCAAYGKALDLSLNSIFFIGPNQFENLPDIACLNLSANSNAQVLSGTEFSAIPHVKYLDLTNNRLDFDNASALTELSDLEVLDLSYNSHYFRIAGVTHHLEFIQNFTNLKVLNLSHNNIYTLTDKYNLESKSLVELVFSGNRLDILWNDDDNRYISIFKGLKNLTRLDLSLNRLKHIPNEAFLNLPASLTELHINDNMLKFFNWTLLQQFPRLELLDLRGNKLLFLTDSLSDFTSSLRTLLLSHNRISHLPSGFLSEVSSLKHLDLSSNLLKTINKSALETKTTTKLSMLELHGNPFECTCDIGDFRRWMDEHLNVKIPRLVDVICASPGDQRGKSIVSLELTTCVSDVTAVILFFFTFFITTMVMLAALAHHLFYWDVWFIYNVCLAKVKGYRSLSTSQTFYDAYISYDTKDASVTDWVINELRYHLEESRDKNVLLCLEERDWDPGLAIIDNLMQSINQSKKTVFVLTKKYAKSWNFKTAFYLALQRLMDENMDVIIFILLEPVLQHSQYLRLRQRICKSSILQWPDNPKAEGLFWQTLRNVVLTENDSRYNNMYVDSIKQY
Assay: HEK293 NFKB reporter assay, human TLR8
Conditions: HEK293 reporter cells expressing human TLR8; read-out: HEK293 hTLR8 EC50
pEC50: −log10 of the molar value.
measure-name: pEC50

{"columns": ["compound", "value"],
 "data": [
  ["CCCN(CCCO)C(=O)C1=Cc2ccc(-c3cnc(CN)nc3)cc2N=C(N)C1", 5.05],
  ["CCCN(OCC)C(=O)C1=Cc2ccc(-c3ccc(C(=O)N4CCC(N)C4)cc3)cc2N=C(N)C1 (stereo not drawn)", 6.07],
  ["CCCN(CCO)C(=O)C1=Cc2ccc(-c3cccc(S(=O)(=O)N4CC(CN)C4)c3)cc2N=C(N)C1", 5.31],
  ["CCCN(OCCNC(=O)OC1CCC1)C(=O)C1=Cc2ccc(-c3cccc(S(=O)(=O)N4CC(CN)C4)c3)cc2N=C(N)C1", 6.79],
  ["CCCN(OCCNC(=O)NC1COC1)C(=O)C1=Cc2ccc(-c3cnc(CN)nc3)cc2N=C(N)C1", 5.05],
  ["CCCN(OCC)C(=O)C1=Cc2ccc(-c3ccc(C(=O)N4CCC(NC(=O)OC(C)(C)C)C4)cc3)cc2N=C(N)C1 (stereo not drawn)", 6.42]
]}

Where do the numbers come from? From patent US20240033370A1.
